# Tested System: Ba/F3 EGFR L858R/C797S mutants (Homo sapiens, UniProt P00533, C797S/L858R, cells depend on it)
# Sequence (P00533 whole entry C797S/L858R): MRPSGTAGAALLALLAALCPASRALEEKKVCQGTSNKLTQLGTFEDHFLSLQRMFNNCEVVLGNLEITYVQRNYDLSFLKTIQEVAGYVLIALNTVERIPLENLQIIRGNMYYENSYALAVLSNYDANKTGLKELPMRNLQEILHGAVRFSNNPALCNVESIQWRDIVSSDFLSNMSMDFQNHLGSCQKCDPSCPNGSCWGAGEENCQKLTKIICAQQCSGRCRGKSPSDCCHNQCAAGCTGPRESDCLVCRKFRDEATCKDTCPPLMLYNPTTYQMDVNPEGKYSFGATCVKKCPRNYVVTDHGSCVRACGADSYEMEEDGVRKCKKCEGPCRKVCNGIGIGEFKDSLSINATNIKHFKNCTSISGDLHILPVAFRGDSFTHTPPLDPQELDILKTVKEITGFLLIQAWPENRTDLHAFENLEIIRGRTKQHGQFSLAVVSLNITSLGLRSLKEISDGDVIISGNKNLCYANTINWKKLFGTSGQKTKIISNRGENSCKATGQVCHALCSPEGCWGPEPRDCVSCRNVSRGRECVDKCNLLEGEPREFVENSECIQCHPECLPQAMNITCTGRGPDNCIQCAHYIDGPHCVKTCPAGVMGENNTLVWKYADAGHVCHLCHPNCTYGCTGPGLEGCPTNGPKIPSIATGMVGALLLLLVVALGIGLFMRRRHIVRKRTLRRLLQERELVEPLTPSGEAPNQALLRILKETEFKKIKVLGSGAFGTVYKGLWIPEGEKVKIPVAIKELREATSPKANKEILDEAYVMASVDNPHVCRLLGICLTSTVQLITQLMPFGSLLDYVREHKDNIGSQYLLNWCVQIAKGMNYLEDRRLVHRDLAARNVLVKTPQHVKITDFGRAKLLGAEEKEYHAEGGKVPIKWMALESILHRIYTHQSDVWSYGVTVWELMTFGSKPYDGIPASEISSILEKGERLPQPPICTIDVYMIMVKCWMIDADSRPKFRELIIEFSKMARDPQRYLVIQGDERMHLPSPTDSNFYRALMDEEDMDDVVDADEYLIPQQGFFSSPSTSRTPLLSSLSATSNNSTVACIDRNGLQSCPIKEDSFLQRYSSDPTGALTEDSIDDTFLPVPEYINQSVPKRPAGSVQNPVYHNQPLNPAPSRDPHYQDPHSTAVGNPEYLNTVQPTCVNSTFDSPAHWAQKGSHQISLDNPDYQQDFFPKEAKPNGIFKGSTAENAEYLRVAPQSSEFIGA
# Protocol Notes: CellTiter-Glo cell viability, Ba/F3 EGFR L858R/C797S cells
# Assay type: cell-based, murine
# Test Context: 72 hours, read-out: Ba/F3 EGFR mutant cell (IC50, nM) L/C
Reported log10 GI50 by item:
Measured Parameter: log10 GI50 (log10 of the value in nM)

{"columns": ["Compound", "log10 GI50"],
 "data": [
  ["CCCc1cc(Nc2ncc(Cl)c(Nc3ccc4nccnc4c3NS(C)(=O)=O)n2)c(OC)cc1N1CCC(N2CCN(C)CC2)CC1", 1.46],
  ["CCS(=O)(=O)Nc1cc(OC)ccc1Nc1nc(Nc2cc(C)c(N3CCC(N4CCN(C)CC4)CC3)cc2OC)ncc1Cl", 1.72],
  ["CCc1cc(Nc2ncc(Br)c(Nc3cccc(OC)c3N(C)S(C)(=O)=O)n2)c(OC)cc1N1CCC(N2CCN(C)CC2)CC1 [Example C29]", 1.88],
  ["COc1ccc(Nc2nc(Nc3cc(C)c(N4CCC(N5CCN(C)CC5)CC4)cc3OC)ncc2Br)c(NS(C)(=O)=O)c1", 1.51],
  ["COc1cc(C2CCNCC2)ccc1Nc1ncc(Cl)c(Nc2ccc3nccnc3c2NC(C)=O)n1", 3.01],
  ["CCc1cc(Nc2ncc(Br)c(Nc3ccc4nccnc4c3N(C)S(C)(=O)=O)n2)c(OC)cc1N1CC2(C1)CN(C(C)C)C2", 1.43]
]}

Data provenance: patent US12297194B2
